molecular target: Casein kinase II subunit alpha' (Homo sapiens) (UniProt P19784); test: Inhibition of […] (unknown origin) assessed as residual activity relative to control; parameters: concentration or dose not given beside the values
Sequence (P19784 whole entry, looked up): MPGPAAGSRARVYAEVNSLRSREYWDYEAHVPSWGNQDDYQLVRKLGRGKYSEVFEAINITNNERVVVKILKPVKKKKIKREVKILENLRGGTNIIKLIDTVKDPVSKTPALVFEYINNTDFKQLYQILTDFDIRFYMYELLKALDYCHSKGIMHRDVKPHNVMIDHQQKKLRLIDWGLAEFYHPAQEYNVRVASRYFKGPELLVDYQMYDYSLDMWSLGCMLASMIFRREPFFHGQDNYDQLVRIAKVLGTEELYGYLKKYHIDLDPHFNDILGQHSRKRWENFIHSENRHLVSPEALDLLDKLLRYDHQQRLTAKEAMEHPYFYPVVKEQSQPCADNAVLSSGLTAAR
Assay Endpoint: Activity (%)
Use % as the unit, but write only the number.

Please review the entries below; each comes with its answer.
O=C(O)c1ccc2c(c1)nc(Oc1cccc(Cl)c1)c1ccncc12 : 4
O=C(O)c1ccc2c(c1)nc(Nc1cccc(Cl)c1)c1ccsc12 : -1

[Q] # input molecule: Cc1cn2c(Nc3cccc(F)c3)nc3cc(C(=O)O)ccc3c2n1 ; wanted: its Activity
[A] 35

[Q] # input molecule: CC(C)c1cn2c(Nc3cccc(Cl)c3)nc3cc(C(=O)O)ccc3c2n1 ; wanted: its Activity
[A] 105

[Q] # input molecule: Cc1cn2c(Nc3cccc(I)c3)nc3cc(C(=O)O)ccc3c2n1 ; wanted: its Activity
[A] 11

[Q] # input molecule: O=C(O)c1ccc2c(c1)nc(Nc1cccc(Cl)c1)c1ccccc12 ; wanted: its Activity
[A] 36

[Q] # input molecule: Cc1nsc2c1c(Nc1cccc(Cl)c1)nc1cc(C(=O)O)ccc12 ; wanted: its Activity
[A] -1

[Q] # input molecule: Cc1cn2c(Nc3ccc(Cl)cc3)nc3cc(C(=O)O)ccc3c2n1 ; wanted: its Activity
[A] 76
